Origin of the recorded values: ChEMBL document CHEMBL5058577

Record form. Attribute: Population Fragmented Nuclei (%). Fill in for each entry.
- System: HEK-293T
- Assay Text: Multiplex assay against HEK293T
- Assay type: toxicity, cell-based
- Assay Context: human, 48 h, 1 µM, compound concentration 1 uM, replicate 2
Reply with just the number (in %).

Task: Item: CCCCC(=O)N(Cc1ccc(-c2ccccc2-c2nnn[nH]2)cc1)[C@H](C(=O)O)C(C)C Test system: HEK-293T Read-out: Population Fragmented Nuclei (%) Value: ?
Output: 14

Task: Here is the next compound: CCCOc1ccc2[nH]cc(C3=CCNCC3)c2n1.Cl
Output: 9

Task: Also check COc1ccccc1N1CCN(C[C@@H](C(=O)NC(C)(C)C)c2ccccc2)CC1.Cl.Cl
Output: 10

Task: What about CC[C@@H](C)Nc1nc(C)nc2c(-c3ccc(OC)nc3C)c(C)nn12 ?
Output: 10

Task: Consider next the compound Cc1cnc(-c2cc(N3CCN(C(=O)CCS(C)(=O)=O)CC3)ncc2Cl)c(C)c1 in the same way.
Output: 14

Task: Record: Cc1onc(-c2ccccc2Cl)c1C(=O)N(C)c1ccc(Cl)cc1
Output: 11
